# TARGET UNDER TEST: Short transient receptor potential channel 4 (Mus musculus) (UniProt Q9QUQ5)
# Sequence (Q9QUQ5 whole entry, looked up): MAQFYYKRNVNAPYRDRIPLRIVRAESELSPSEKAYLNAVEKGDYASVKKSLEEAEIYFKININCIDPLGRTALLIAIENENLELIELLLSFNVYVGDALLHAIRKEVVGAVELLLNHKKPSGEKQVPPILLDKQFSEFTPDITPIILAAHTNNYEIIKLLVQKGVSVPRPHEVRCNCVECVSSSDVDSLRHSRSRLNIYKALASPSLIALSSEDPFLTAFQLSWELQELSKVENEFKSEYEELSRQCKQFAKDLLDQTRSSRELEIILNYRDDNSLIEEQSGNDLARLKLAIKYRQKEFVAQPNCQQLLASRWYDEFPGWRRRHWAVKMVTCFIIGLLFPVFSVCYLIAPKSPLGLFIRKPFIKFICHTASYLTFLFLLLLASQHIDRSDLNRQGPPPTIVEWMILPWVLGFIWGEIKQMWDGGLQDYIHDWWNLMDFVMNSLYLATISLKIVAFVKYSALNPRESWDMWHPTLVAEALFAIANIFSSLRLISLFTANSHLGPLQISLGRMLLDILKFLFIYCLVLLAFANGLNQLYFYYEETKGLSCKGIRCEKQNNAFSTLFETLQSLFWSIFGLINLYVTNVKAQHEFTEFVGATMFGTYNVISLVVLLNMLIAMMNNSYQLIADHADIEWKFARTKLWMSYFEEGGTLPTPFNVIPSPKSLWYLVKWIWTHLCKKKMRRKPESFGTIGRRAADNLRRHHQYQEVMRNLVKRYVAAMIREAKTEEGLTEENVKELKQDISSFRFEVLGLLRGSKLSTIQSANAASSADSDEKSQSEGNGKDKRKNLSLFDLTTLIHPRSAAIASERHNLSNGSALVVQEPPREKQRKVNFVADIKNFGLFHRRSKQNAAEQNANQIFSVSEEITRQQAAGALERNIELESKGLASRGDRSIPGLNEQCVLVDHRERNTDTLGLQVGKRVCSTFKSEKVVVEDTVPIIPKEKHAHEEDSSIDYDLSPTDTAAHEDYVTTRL
# METHOD DESCRIPTION: positive allosteric modulators of TRPC4, primary screen, cell-based, mouse TRPC4beta, HEK293 mu-opioid, Fluo-4 calcium (AID 2227)
# TEST CONTEXT: DAMGO EC20, Fluo-4 Ca2+ flux, at 10 µM
About 1,300 (0.42%) of roughly 310,000 compounds were called active.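 How the source made its calls: active means B-score of calcium response area above 5 SD of library B-scores, with initial fluorescence ratio within 5 SD of library; inactive means the rest.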 Shown is part of a subset that was picked to be rich in actives.
Response enum: active, inactive

INSERT INTO measurements (molecule_smiles, class_name) VALUES
  ('O=c1c2ccccc2nc(-c2ccco2)n1-c1ccc(Br)cn1', 'inactive'),
  ('O=C(Cc1ccccc1[N+](=O)[O-])N1CCN(Cc2ccc3c(c2)OCO3)CC1', 'inactive'),
  ('CN(C)C(=O)Oc1ccc2c(c1)O/C(=C\c1ccccc1)C2=O', 'inactive'),
  ('Cc1ccc(-c2nc3ccccc3c(=O)n2-c2ccc(Br)cn2)cc1', 'active');

How did this test come out for COC(=O)C1=C(c2cc3ccccc3s2)C[C@@H]2CC[C@H]1N2C(=O)NCCO ? inactive

How did this test come out for Cc1ccc(N(C)C(=O)Oc2cccc3ccc(C)nc23)cc1 ? inactive
